Tested on: Mycobacterium tuberculosis
assay info: Antibacterial activity against Mycobacterium tuberculosis H37Rv at 6.25 ug/ml by microplate Alamar blue assay
Format: functional
recorded endpoint: inhibition at 6.25 µg/mL (%)

smiles_str=NC[C@H]1O[C@@H](O[C@H]([C@H]2O[C@@H](n3ccc(=O)[nH]c3=O)[C@H](O)[C@@H]2O)[C@H](N)C(=O)N[C@H](COC(=O)c2ccc(-c3ccccc3)cc2)C(=O)O)[C@H](O)[C@@H]1O assay_value=27
smiles_str=NC[C@H]1O[C@@H](O[C@H]([C@H]2O[C@@H](n3ccc(=O)[nH]c3=O)[C@H](O)[C@@H]2O)[C@@H]2NC(=O)[C@H](COC(=O)c3ccc(-c4ccccc4)cc3)NC2=O)[C@H](O)[C@@H]1O assay_value=48
smiles_str=CCCCCCCCCCCCCCCC(=O)OC[C@H](NC(=O)[C@@H](N)[C@H](O[C@@H]1O[C@H](CN)[C@@H](O)[C@H]1O)[C@H]1O[C@@H](n2ccc(=O)[nH]c2=O)[C@H](O)[C@@H]1O)C(=O)O assay_value=51
smiles_str=CCCCCCCCCCCCCCCC(=O)OC[C@@H](NC(=O)[C@@H](N)[C@H](O[C@@H]1O[C@H](CN)[C@@H](O)[C@H]1O)[C@H]1O[C@@H](n2ccc(=O)[nH]c2=O)[C@H](O)[C@@H]1O)C(=O)O assay_value=59
smiles_str=NC[C@H]1O[C@@H](O[C@H]([C@H]2O[C@@H](n3ccc(=O)[nH]c3=O)[C@H](O)[C@@H]2O)[C@@H]2NC(=O)[C@@H](COC(=O)c3ccc(-c4ccccc4)cc3)NC2=O)[C@H](O)[C@@H]1O assay_value=29
smiles_str=CCCCCCCCCCCCCCCC(=O)OC[C@@H]1NC(=O)[C@H]([C@H](O[C@@H]2O[C@H](CN)[C@@H](O)[C@H]2O)[C@H]2O[C@@H](n3ccc(=O)[nH]c3=O)[C@H](O)[C@@H]2O)NC1=O assay_value=35
smiles_str=NC[C@H]1O[C@@H](O[C@H]([C@H]2O[C@@H](n3ccc(=O)[nH]c3=O)[C@H](O)[C@@H]2O)[C@H](N)C(=O)N[C@@H](COC(=O)c2ccc(-c3ccccc3)cc2)C(=O)O)[C@H](O)[C@@H]1O assay_value=52
